Each item that follows carries a reported protein stability index.
B1: DLC1 (parent)
chain: AIQGISEKEKAEIEAKEACDWLRA

variants of: B1; assay: protein stability index of a GFP-peptide fusion (GPS, HEK-293T) (PSI 1-6); higher = more stable; conditions: c terminus: a fixed tail appended;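 further: lentivirally expressed fusions sorted by FACS into six bins by GFP to DsRed ratio, PSI derived from sequencing read proportions per bin multiplied by bin number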
Please respond with just the number, no unit label.

Solved entries:
A15G
3.97
I13K
4.89
W21D
5.77
K10E
4
A11S
4.79
W21I
4.62
I2H
4.9
C19H
4.75
K10Q
4.57
A18I
4.14

Would you mind telling me what protein stability index value was observed for I5L ?
4.36

Follow-up item: C19P
4.33

Consider next the variant A18W in the same way.
4.27

Subsequent entry: E17Y
3.79

How about this variant: E9Y
3.48

Similarly, G4E ?
4.53

Also check R23N
5.1

Try A1Q next.
4.23

Would you mind doing E14D as well?
4.58

Same thing, different variant: K8L
3.85

And what about the variant C19V ?
4.77

Input A18Q
4.28

Now try I13N .
4.66
